System: Saccharomyces cerevisiae
assayName: protein stability index of tFT-peptide fusion (C-terminal peptide) (PSI (0-1 scale)); higher = more stable (slower turnover)
conditionSet: genetic background: wild type; temperature: 30 C
Classify as follows. Reported protein stability index greater than or equal to 0.3: Satisfied. Reported protein stability index below: Not satisfied.

- macromoleculeSequence: "FLFLLLFLLLCC"
  cat: "Satisfied"
- macromoleculeSequence: "PKRNNRKAQQIS"
  cat: "Not satisfied"
- macromoleculeSequence: "FFLDRLVIRLIA"
  cat: "Not satisfied"
- macromoleculeSequence: "MCRMYELYVTSS"
  cat: "Satisfied"
- macromoleculeSequence: "LVVIYPLLSSPV"
  cat: "Satisfied"
- macromoleculeSequence: "SSCLPAPPPLPL"
  cat: "Satisfied"
- macromoleculeSequence: "FVRSVFFCVSVG"
  cat: "Satisfied"
- macromoleculeSequence: "VFFLLSVYMVMM"
  cat: "Not satisfied"
- macromoleculeSequence: "GGGGGGGDVLVW"
  cat: "Not satisfied"
- macromoleculeSequence: "VMFCRFPLRFGC"
  cat: "Satisfied"
- macromoleculeSequence: "RTFPYSALSFVS"
  cat: "Not satisfied"
- macromoleculeSequence: "RVFVGLVDFLFW"
  cat: "Satisfied"
- macromoleculeSequence: "IRVFSFLLFGCF"
  cat: "Satisfied"
- macromoleculeSequence: "PPAPTPFPPSPR"
  cat: "Satisfied"
- macromoleculeSequence: "LLLVCYSTFIVA"
  cat: "Not satisfied"
- macromoleculeSequence: "KLCVGLVLSFVC"
  cat: "Not satisfied"
- macromoleculeSequence: "SIRIIVVVRGAS"
  cat: "Satisfied"
- macromoleculeSequence: "LSGIILGWSVSG"
  cat: "Satisfied"
- macromoleculeSequence: "KKKEIIKIIKIN"
  cat: "Not satisfied"
- macromoleculeSequence: "FVMLSFLVSSLP"
  cat: "Satisfied"
- macromoleculeSequence: "LSCFCLFCLSFC"
  cat: "Satisfied"
- macromoleculeSequence: "RSYAYIIVATVA"
  cat: "Not satisfied"

---

System: Saccharomyces cerevisiae
assayName: protein stability index of tFT-peptide fusion (C-terminal peptide) (PSI (0-1 scale)); higher = more stable (slower turnover)
conditionSet: genetic background: das1 deletion; temperature: 30 C
In this section, each of the sequences is paired with its reported protein stability index.

- macromoleculeSequence: "SWISNNTNVPKK [ARF3 C-terminal 12 aa]"
  protein stability index: 0.696
- macromoleculeSequence: "QTSKGPENLQFS [RAD53 C-terminal 12 aa]"
  protein stability index: 0.71
- macromoleculeSequence: "VFEVFSRMDMLL [VPS74 C-terminal 12 aa]"
  protein stability index: 0.715
- macromoleculeSequence: "SLDVGKILDVTI [PSR1 C-terminal 12 aa]"
  protein stability index: 0.686
- macromoleculeSequence: "AKGLAKTEIANQ [GIR2 C-terminal 12 aa]"
  protein stability index: 0.686
- macromoleculeSequence: "LESTHDKAIAGK [MNN2 C-terminal 12 aa]"
  protein stability index: 0.697
- macromoleculeSequence: "NELSLRPATERI [YBL100W-A C-terminal 12 aa]"
  protein stability index: 0.685
- macromoleculeSequence: "TSDQKNKRTQFS [RPB9 C-terminal 12 aa]"
  protein stability index: 0.697
- macromoleculeSequence: "LSGAPQVTKKQN [POM33 C-terminal 12 aa]"
  protein stability index: 0.691
- macromoleculeSequence: "ILNCVGSAKTSG [YBR298C-A C-terminal 12 aa]"
  protein stability index: 0.684
- macromoleculeSequence: "SSSNKSQRNGRY [AIR1 C-terminal 12 aa]"
  protein stability index: 0.712
- macromoleculeSequence: "NLMEMFTKRDRS [ROD1 C-terminal 12 aa]"
  protein stability index: 0.72
- macromoleculeSequence: "DALYRIIYGNIL [TIP20 C-terminal 12 aa]"
  protein stability index: 0.711
- macromoleculeSequence: "SFPVVEPMGGST [BDS1 C-terminal 12 aa]"
  protein stability index: 0.69
- macromoleculeSequence: "HNILDRCLKRLS [RKM3 C-terminal 12 aa]"
  protein stability index: 0.699
- macromoleculeSequence: "VSNASNGCVLDA [ILV3 C-terminal 12 aa]"
  protein stability index: 0.705
- macromoleculeSequence: "TKGEVATKPASY [MGA1 C-terminal 12 aa]"
  protein stability index: 0.702
- macromoleculeSequence: "QNARAAFKSTLV [YDR514C C-terminal 12 aa]"
  protein stability index: 0.707
- macromoleculeSequence: "HNPSLWSCIFGK [SWS2 C-terminal 12 aa]"
  protein stability index: 0.716
- macromoleculeSequence: "GESVDKVTKNEQ [YPR114W C-terminal 12 aa]"
  protein stability index: 0.691
- macromoleculeSequence: "NIYNPMDEEENQ [TFB5 C-terminal 12 aa]"
  protein stability index: 0.718
- macromoleculeSequence: "YILQKQIIEDVE [SFH5 C-terminal 12 aa]"
  protein stability index: 0.693
- macromoleculeSequence: "ESGPSIVHHKCF [ACT1 C-terminal 12 aa]"
  protein stability index: 0.687
- macromoleculeSequence: "HRIASKIRSKLR [GIP4 C-terminal 12 aa]"
  protein stability index: 0.686
- macromoleculeSequence: "SLGSVFTILTDS [YGR228W C-terminal 12 aa]"
  protein stability index: 0.72
- macromoleculeSequence: "PHEAALPKPSFV [EDC2 C-terminal 12 aa]"
  protein stability index: 0.707
- macromoleculeSequence: "KNLWEKFWAAVA [LYP1 C-terminal 12 aa]"
  protein stability index: 0.693
- macromoleculeSequence: "NSSGEFQLESLF [MRI1 C-terminal 12 aa]"
  protein stability index: 0.707
- macromoleculeSequence: "ALSKDGIYTITN [PAU13 C-terminal 12 aa]"
  protein stability index: 0.706
- macromoleculeSequence: "LKMDKLGNYILE [RIO2 C-terminal 12 aa]"
  protein stability index: 0.717
- macromoleculeSequence: "THFFSIEWAGFG [SEN34 C-terminal 12 aa]"
  protein stability index: 0.712
- macromoleculeSequence: "PSYEMRYNKNER [YBL065W C-terminal 12 aa]"
  protein stability index: 0.714
- macromoleculeSequence: "FFKQAEQEQADV [PRP11 C-terminal 12 aa]"
  protein stability index: 0.702
- macromoleculeSequence: "QTAISMNDEDDA [GVP36 C-terminal 12 aa]"
  protein stability index: 0.712
- macromoleculeSequence: "DKLSWSVRWEPR [URA4 C-terminal 12 aa]"
  protein stability index: 0.712

---

System: Saccharomyces cerevisiae
assayName: protein stability index of tFT-peptide fusion (C-terminal peptide) (PSI (0-1 scale)); higher = more stable (slower turnover)
conditionSet: genetic background: wild type; temperature: 30 C
Below, each entry is listed with its recorded protein stability index.
observationType: protein stability index

- macromoleculeSequence: "RVGQINKFLPLE"
  testedSystem: "Saccharomyces cerevisiae"
  reportedResult: 0.682
- macromoleculeSequence: "KKKKQKKKRKRE"
  testedSystem: "Saccharomyces cerevisiae"
  reportedResult: 0.718
- macromoleculeSequence: "RRKVGVFTRRWV"
  testedSystem: "Saccharomyces cerevisiae"
  reportedResult: 0.691
- macromoleculeSequence: "LGSSGCVLVGWG"
  testedSystem: "Saccharomyces cerevisiae"
  reportedResult: 0.683
- macromoleculeSequence: "QDSDRSLTPKPL"
  testedSystem: "Saccharomyces cerevisiae"
  reportedResult: 0.688
- macromoleculeSequence: "PPRPLPPHPLLL"
  testedSystem: "Saccharomyces cerevisiae"
  reportedResult: 0.681
- macromoleculeSequence: "WGTVIYGVGSGQ"
  testedSystem: "Saccharomyces cerevisiae"
  reportedResult: 0.691
- macromoleculeSequence: "VAVAAPVVRAVI"
  testedSystem: "Saccharomyces cerevisiae"
  reportedResult: 0.69
- macromoleculeSequence: "TPPPLSAPSYAG"
  testedSystem: "Saccharomyces cerevisiae"
  reportedResult: 0.697
- macromoleculeSequence: "KDNMQFLHLYAS"
  testedSystem: "Saccharomyces cerevisiae"
  reportedResult: 0.707
- macromoleculeSequence: "KRKKQERKREKK"
  testedSystem: "Saccharomyces cerevisiae"
  reportedResult: 0.692
- macromoleculeSequence: "CPSRCGLRAPYL"
  testedSystem: "Saccharomyces cerevisiae"
  reportedResult: 0.706
- macromoleculeSequence: "IAKAVCESLCLQ"
  testedSystem: "Saccharomyces cerevisiae"
  reportedResult: 0.715
- macromoleculeSequence: "NESSASKEKSNI"
  testedSystem: "Saccharomyces cerevisiae"
  reportedResult: 0.69
- macromoleculeSequence: "GPSRTPRHPSPP"
  testedSystem: "Saccharomyces cerevisiae"
  reportedResult: 0.701
- macromoleculeSequence: "LGVLGGGRRFGV"
  testedSystem: "Saccharomyces cerevisiae"
  reportedResult: 0.715

---

Test system: Saccharomyces cerevisiae
assayName: protein stability index of tFT-peptide fusion (C-terminal peptide) (PSI (0-1 scale)); higher = more stable (slower turnover)
conditionSet: genetic background: wild type; temperature: 30 C
Kind request: treat 0.7 as inclusive, so protein stability index at 0.7 or higher is fulfilled, anything lower is not fulfilled.

- macromoleculeSequence: "GILILRLILCLF"
  cat: "not fulfilled"
- macromoleculeSequence: "ADAFDRGRISVV"
  cat: "fulfilled"
- macromoleculeSequence: "ASLLSCSLLPPV"
  cat: "fulfilled"
- macromoleculeSequence: "SVVYSVWIYLLH"
  cat: "not fulfilled"
- macromoleculeSequence: "IGRRSRALKITE"
  cat: "not fulfilled"
- macromoleculeSequence: "RGTGPPGALREE"
  cat: "not fulfilled"
- macromoleculeSequence: "NCTHKKKTLTPN"
  cat: "fulfilled"
- macromoleculeSequence: "PLPRPPPPSCPP"
  cat: "not fulfilled"
- macromoleculeSequence: "PPPPTPLPPPHD"
  cat: "not fulfilled"
- macromoleculeSequence: "KRQWAGRDGEGR"
  cat: "not fulfilled"
- macromoleculeSequence: "VGFYRADSLLIF"
  cat: "not fulfilled"
- macromoleculeSequence: "NQIIRLIVGLLC"
  cat: "not fulfilled"
- macromoleculeSequence: "TLLSPRRHPFAR"
  cat: "not fulfilled"
- macromoleculeSequence: "ITIVIKQNVDKE"
  cat: "not fulfilled"
- macromoleculeSequence: "LPRPYRPASTCT"
  cat: "not fulfilled"
- macromoleculeSequence: "PCYCSAPRRSWA"
  cat: "fulfilled"
- macromoleculeSequence: "ERKEPRIQQQTL"
  cat: "not fulfilled"
- macromoleculeSequence: "CFRPFSARVVVL"
  cat: "not fulfilled"
- macromoleculeSequence: "GVWVGAVRGRYG"
  cat: "not fulfilled"
- macromoleculeSequence: "PPPTPTFPVPPH"
  cat: "not fulfilled"
- macromoleculeSequence: "KKMKKASTAKEL"
  cat: "not fulfilled"
- macromoleculeSequence: "PVLPPPAPSPPP"
  cat: "not fulfilled"
- macromoleculeSequence: "TPLPPEHLPRSR"
  cat: "not fulfilled"
- macromoleculeSequence: "AGLGHVPGEHSV"
  cat: "not fulfilled"
- macromoleculeSequence: "GDSWVVRSGVWV"
  cat: "fulfilled"
- macromoleculeSequence: "GGKGGWHRRWGC"
  cat: "not fulfilled"
- macromoleculeSequence: "VRHGERGGGLGD"
  cat: "fulfilled"
- macromoleculeSequence: "VAIVGCVGKLIR"
  cat: "not fulfilled"
- macromoleculeSequence: "GGVRRRSAVGVR"
  cat: "not fulfilled"
- macromoleculeSequence: "IRSLRPFLLPLF"
  cat: "not fulfilled"
- macromoleculeSequence: "LSLCYCALTSSN"
  cat: "not fulfilled"
- macromoleculeSequence: "GGLWGSGGASGG"
  cat: "fulfilled"
- macromoleculeSequence: "PPLFPPPTLPEL"
  cat: "fulfilled"
- macromoleculeSequence: "TVCGWSHLFVYN"
  cat: "not fulfilled"
- macromoleculeSequence: "PSVLLAPTRRHP"
  cat: "not fulfilled"
- macromoleculeSequence: "RSKLGVLVILWF"
  cat: "not fulfilled"
- macromoleculeSequence: "RVSIPALKEIAS"
  cat: "fulfilled"
- macromoleculeSequence: "VGFSAFSDSFFV"
  cat: "fulfilled"
- macromoleculeSequence: "VIQNKKKNKITS"
  cat: "not fulfilled"
- macromoleculeSequence: "VCSRGVCGFLSG"
  cat: "not fulfilled"
- macromoleculeSequence: "YNDGSNPYLSRS"
  cat: "fulfilled"
- macromoleculeSequence: "QTYEGSKGHLRD"
  cat: "not fulfilled"
- macromoleculeSequence: "PSSPPTPLPPRS"
  cat: "not fulfilled"
- macromoleculeSequence: "VDRRCTGLISSS"
  cat: "not fulfilled"
- macromoleculeSequence: "VLARGFHCMYFC"
  cat: "not fulfilled"
- macromoleculeSequence: "ESTNKKKEKKNR"
  cat: "not fulfilled"
- macromoleculeSequence: "RNIRINKKVKDI"
  cat: "not fulfilled"
- macromoleculeSequence: "FVPFVLFLLRPL"
  cat: "not fulfilled"
- macromoleculeSequence: "VCGLLGGVWLCL"
  cat: "not fulfilled"
